# Assay Text: Intrinsic clearance in rat liver microsomes measured after 1 hr
# Format: ADME, Microsome
# Condition Summary: read-out: CLH
Quantity Measured: microsomal CLint (µL/min/mg)
# number only, unit µL/min/mg dropped from output

What does the data say about its microsomal CLint? Entry: NC(=O)c1cccc2cc(C(=O)N3CCN(c4nc(-c5cnc(NC(=O)CN6CCOCC6)cc5C(F)(F)F)nc(N5CCOCC5)n4)CC3)oc12
32.9

====

# System Under Test: Phosphatidylinositol 4,5-bisphosphate 3-kinase catalytic subunit alpha isoform (Homo sapiens, UniProt P42336)
# Sequence (P42336 whole entry, canonical isoform): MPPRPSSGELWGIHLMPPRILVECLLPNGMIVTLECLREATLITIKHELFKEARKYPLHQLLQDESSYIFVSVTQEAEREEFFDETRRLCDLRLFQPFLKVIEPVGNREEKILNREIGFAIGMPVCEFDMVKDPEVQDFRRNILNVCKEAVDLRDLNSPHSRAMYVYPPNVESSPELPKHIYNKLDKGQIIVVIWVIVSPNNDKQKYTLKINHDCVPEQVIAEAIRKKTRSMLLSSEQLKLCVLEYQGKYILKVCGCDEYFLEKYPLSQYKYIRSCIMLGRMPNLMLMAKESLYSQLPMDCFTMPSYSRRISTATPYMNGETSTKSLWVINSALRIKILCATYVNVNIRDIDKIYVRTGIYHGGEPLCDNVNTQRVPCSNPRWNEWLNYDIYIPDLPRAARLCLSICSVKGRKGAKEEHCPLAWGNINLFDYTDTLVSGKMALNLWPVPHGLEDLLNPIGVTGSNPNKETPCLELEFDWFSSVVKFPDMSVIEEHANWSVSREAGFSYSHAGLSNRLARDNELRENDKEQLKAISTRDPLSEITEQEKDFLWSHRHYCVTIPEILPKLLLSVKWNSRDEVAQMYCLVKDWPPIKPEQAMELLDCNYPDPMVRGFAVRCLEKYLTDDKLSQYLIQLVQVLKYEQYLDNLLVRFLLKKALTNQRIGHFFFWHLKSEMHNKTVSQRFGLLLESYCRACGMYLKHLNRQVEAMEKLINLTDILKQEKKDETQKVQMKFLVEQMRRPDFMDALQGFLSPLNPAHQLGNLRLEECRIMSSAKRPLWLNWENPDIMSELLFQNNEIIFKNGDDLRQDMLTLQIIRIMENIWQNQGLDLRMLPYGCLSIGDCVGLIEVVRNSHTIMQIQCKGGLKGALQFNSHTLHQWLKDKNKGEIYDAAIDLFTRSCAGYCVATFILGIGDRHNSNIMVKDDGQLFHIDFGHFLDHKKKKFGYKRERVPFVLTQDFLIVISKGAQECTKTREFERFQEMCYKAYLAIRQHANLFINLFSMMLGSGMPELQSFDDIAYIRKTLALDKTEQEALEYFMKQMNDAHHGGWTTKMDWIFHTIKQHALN
# Assay Text: Inhibition of PI3Kalpha (unknown origin)
Consider the following compounds and their measured IC50 readings.
Please format your answer as a value with the unit trailing.

Query (compound): NC(=O)c1cccc2cc(C(=O)N3CCN(c4nc(-c5cnc(N)cc5C(F)(F)F)nc(N5CCOCC5)n4)CC3)oc12 ; field requested: IC50
39.6 nM

Given the compound NC(=O)c1cccc2cc(C(=O)N3CCN(c4nc(-c5cnc(NC(=O)CN6CCOCC6)cc5C(F)(F)F)nc(N5CCOCC5)n4)CC3)oc12 , what is its reported IC50?
64 nM

Name the reported IC50 value associated with the compound NC(=O)c1cccc2cc(C(=O)N3CCN(c4nc(-c5ccc(N)nc5)nc(N5CCOCC5)n4)CC3)oc12
119 nM

# IC50 lookup, item NC(=O)c1cccc2cc(C(=O)N3CCN(c4nc(-c5cnc(N)nc5)nc(N5CCOCC5)n4)CC3)oc12
6.3 nM

====

List of inhibition values.
# System Under Test: Phosphatidylinositol 4,5-bisphosphate 3-kinase catalytic subunit alpha isoform (Homo sapiens, UniProt P42336)
# Assay Text: Inhibition of PI3Kalpha (unknown origin) at 100 nM relative to control
Respond numerically; units are % and should not be typed.

compound_string=Nc1cc(C(F)(F)F)c(-c2cc(N3CCOCC3)nc(N3CCOCC3)n2)cn1 quantity_measured=inhibition unit_of_measure=% result_value=82
compound_string=NC(=O)c1cccc2cc(C(=O)N3CCN(c4nc(-c5ccc(N)c(F)c5)nc(N5CCOCC5)n4)CC3)oc12 quantity_measured=inhibition unit_of_measure=% result_value=5
compound_string=NC(=O)c1cccc2cc(C(=O)N3CCN(c4nc(-c5ccc6[nH]ccc6c5)nc(N5CCOCC5)n4)CC3)oc12 quantity_measured=inhibition unit_of_measure=% result_value=8
compound_string=NC(=O)c1cccc2cc(C(=O)N3CCN(c4nc(-c5ccc(N)nc5)nc(N5CCOCC5)n4)CC3)oc12 quantity_measured=inhibition unit_of_measure=% result_value=79
compound_string=NC(=O)c1cccc2cc(C(=O)N3CCN(c4cc(-c5cnc(N)nc5)nc(N5CCOCC5)n4)CC3)oc12 quantity_measured=inhibition unit_of_measure=% result_value=60

Returns the measured inhibition for the input compound. Input: NC(=O)c1cccc2cc(C(=O)N3CCN(c4nc(-c5cnc(N)nc5)nc(N5CCOCC5)n4)CC3)oc12
86

Need inhibition of NC(=O)c1cccc2cc(C(=O)N3CCN(c4nc(N5CCOCC5)nc(-n5c(C(F)F)nc6ccccc65)n4)CC3)oc12 , thanks.
29

May I ask what inhibition has been recorded for NC(=O)c1cccc2cc(C(=O)N3CCN(c4cc(-n5c(C(F)F)nc6ccccc65)nc(N5CCOCC5)n4)CC3)oc12 ?
26

Fill blank: measured inhibition of the compound NC(=O)c1cccc2cc(C(=O)N3CCN(c4nc(-c5cnc(N)cc5C(F)(F)F)nc(N5CCOCC5)n4)CC3)oc12 is ____.
77

inhibition lookup needed for NC(=O)c1cccc2cc(C(=O)N3CCN(c4cc(-c5cnc(N)cc5C(F)(F)F)nc(N5CCOCC5)n4)CC3)oc12 , thanks.
80

====

# Assay Text: Elimination half life in human liver microsomes measured after 1 hr
# Type: ADME, Microsome
# Condition Summary: read-out: beta t1/2
Quantity Measured: half-life

State the recorded half-life for this entry: NC(=O)c1cccc2cc(C(=O)N3CCN(c4nc(-c5cnc(NC(=O)CN6CCOCC6)cc5C(F)(F)F)nc(N5CCOCC5)n4)CC3)oc12
1.78 h

====

# Assay Text: Intrinsic clearance in human liver microsomes measured after 1 hr
# Format: ADME, Microsome
# Condition Summary: read-out: CLH
Quantity Measured: microsomal CLint (µL/min/mg)
Please respond with the number in µL/min/mg and leave the unit unwritten.

Any idea what its microsomal CLint is? The molecule is NC(=O)c1cccc2cc(C(=O)N3CCN(c4nc(-c5cnc(NC(=O)CN6CCOCC6)cc5C(F)(F)F)nc(N5CCOCC5)n4)CC3)oc12
14.7

====

# Assay Text: Apparent permeability across basolateral to apical side in human Caco2 cells assessed as drug recovery at 5 uM measured after 120 mins
# Assay type: ADME, cell-based
# Condition Summary: Caco-2, read-out: Drug recovery
Quantity Measured: recovery at 2 h, 5 µM (%)
Value expressed in %; do not type the unit.

Would you kindly share the measured recovery at 2 h, 5 µM for NC(=O)c1cccc2cc(C(=O)N3CCN(c4nc(-c5cnc(NC(=O)CN6CCOCC6)cc5C(F)(F)F)nc(N5CCOCC5)n4)CC3)oc12 ?
99.9

====

# System Under Test: Phosphatidylinositol 4,5-bisphosphate 3-kinase catalytic subunit delta isoform (Homo sapiens)
# Sequence (O00329 whole entry, canonical isoform): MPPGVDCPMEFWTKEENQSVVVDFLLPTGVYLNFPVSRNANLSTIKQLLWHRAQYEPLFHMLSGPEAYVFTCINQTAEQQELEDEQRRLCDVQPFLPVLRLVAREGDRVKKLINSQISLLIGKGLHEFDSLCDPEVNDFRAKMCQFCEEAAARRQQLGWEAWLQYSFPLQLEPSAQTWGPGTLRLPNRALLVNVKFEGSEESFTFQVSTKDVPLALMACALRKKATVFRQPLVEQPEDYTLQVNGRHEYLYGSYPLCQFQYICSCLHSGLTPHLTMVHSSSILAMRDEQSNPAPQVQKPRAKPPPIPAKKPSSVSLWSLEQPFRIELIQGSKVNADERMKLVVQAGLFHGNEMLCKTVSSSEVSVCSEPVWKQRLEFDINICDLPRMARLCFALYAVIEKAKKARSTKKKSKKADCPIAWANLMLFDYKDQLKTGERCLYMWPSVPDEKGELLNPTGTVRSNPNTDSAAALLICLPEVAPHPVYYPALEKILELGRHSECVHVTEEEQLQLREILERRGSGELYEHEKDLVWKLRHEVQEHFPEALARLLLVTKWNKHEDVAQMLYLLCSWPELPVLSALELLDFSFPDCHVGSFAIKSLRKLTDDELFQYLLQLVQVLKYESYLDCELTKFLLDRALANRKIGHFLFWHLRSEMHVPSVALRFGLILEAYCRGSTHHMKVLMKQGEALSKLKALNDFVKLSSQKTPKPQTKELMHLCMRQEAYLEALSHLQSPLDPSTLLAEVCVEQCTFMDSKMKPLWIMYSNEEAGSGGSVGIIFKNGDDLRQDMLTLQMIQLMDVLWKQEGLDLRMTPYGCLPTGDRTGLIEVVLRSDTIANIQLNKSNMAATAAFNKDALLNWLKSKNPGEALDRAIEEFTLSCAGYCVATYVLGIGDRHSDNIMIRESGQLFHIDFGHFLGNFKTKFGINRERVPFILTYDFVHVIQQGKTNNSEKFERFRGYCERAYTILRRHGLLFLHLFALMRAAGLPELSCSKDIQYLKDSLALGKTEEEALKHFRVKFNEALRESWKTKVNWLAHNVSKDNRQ
# Assay Text: Inhibition of PI3Kdelta (unknown origin)
Quantity Measured: IC50

Request the reported IC50 associated with NC(=O)c1cccc2cc(C(=O)N3CCN(c4nc(-c5cnc(NC(=O)CN6CCOCC6)cc5C(F)(F)F)nc(N5CCOCC5)n4)CC3)oc12
197 nM

====

# System Under Test: Poly [ADP-ribose] polymerase 2 (Homo sapiens)
# Sequence (Q9UGN5 whole entry): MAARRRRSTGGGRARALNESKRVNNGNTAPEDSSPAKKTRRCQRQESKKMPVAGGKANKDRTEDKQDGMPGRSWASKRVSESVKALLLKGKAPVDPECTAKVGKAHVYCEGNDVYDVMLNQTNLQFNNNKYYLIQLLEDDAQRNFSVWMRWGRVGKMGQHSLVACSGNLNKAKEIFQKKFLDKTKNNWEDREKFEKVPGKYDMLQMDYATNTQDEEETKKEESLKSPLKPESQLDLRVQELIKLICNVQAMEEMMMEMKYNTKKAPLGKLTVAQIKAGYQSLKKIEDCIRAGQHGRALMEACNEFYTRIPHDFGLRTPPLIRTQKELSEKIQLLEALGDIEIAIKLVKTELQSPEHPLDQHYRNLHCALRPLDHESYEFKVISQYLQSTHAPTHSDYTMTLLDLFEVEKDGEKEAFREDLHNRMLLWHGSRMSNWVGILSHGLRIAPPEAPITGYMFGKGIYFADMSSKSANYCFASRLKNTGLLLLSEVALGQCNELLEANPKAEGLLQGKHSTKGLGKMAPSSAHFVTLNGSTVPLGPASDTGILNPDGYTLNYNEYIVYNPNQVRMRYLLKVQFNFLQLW
Quantity Measured: IC50 (nM)
Number in nM, nothing else.

So what IC50 did NC(=O)c1cccc2cc(C(=O)N3CCN(c4nc(-c5cnc(NC(=O)CN6CCOCC6)cc5C(F)(F)F)nc(N5CCOCC5)n4)CC3)oc12 get with Poly [ADP-ribose] polymerase 2 (Homo sapiens)?
6.2

====

# System Under Test: Voltage-gated inwardly rectifying potassium channel KCNH2 (Homo sapiens)
# Sequence (Q12809 whole entry): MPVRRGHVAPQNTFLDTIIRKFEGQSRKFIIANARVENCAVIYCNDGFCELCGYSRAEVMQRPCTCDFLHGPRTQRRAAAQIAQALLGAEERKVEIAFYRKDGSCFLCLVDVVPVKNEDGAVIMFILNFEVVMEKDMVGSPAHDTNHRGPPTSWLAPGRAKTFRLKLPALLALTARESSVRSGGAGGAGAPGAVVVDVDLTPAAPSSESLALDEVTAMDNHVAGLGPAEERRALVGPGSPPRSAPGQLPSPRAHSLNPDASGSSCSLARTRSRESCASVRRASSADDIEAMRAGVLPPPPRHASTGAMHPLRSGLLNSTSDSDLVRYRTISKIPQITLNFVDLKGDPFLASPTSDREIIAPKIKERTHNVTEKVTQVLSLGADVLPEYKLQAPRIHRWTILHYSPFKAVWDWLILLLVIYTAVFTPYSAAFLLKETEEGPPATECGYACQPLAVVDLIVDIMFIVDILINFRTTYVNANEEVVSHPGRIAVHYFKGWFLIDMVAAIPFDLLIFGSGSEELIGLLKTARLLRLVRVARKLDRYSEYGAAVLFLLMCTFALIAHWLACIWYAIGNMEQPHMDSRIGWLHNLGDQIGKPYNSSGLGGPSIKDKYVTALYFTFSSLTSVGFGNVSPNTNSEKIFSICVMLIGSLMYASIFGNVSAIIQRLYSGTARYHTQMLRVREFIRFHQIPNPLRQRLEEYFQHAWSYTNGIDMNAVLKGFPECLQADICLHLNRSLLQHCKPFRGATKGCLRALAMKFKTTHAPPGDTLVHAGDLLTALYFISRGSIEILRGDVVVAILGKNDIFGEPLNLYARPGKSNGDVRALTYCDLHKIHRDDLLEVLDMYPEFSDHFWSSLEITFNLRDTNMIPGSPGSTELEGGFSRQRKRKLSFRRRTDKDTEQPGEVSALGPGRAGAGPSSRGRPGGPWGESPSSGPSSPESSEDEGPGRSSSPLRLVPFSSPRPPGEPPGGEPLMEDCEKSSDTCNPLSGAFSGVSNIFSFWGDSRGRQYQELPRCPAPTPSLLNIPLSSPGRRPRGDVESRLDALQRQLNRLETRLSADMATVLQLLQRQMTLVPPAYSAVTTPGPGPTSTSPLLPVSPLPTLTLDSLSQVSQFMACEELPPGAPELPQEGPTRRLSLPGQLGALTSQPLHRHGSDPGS
Quantity Measured: pIC50
pIC50 here is simply -log10 of the concentration when that concentration is written in mol/L.

Notebook: pull reported pIC50 for Voltage-gated inwardly rectifying potassium channel KCNH2 (Homo sapiens), entry NC(=O)c1cccc2cc(C(=O)N3CCN(c4nc(-c5cnc(NC(=O)CN6CCOCC6)cc5C(F)(F)F)nc(N5CCOCC5)n4)CC3)oc12
4.53

====

Entries and their measured inhibition follow.
# System Under Test: Poly [ADP-ribose] polymerase 1 (Homo sapiens, UniProt P09874)
# Sequence (P09874 whole entry): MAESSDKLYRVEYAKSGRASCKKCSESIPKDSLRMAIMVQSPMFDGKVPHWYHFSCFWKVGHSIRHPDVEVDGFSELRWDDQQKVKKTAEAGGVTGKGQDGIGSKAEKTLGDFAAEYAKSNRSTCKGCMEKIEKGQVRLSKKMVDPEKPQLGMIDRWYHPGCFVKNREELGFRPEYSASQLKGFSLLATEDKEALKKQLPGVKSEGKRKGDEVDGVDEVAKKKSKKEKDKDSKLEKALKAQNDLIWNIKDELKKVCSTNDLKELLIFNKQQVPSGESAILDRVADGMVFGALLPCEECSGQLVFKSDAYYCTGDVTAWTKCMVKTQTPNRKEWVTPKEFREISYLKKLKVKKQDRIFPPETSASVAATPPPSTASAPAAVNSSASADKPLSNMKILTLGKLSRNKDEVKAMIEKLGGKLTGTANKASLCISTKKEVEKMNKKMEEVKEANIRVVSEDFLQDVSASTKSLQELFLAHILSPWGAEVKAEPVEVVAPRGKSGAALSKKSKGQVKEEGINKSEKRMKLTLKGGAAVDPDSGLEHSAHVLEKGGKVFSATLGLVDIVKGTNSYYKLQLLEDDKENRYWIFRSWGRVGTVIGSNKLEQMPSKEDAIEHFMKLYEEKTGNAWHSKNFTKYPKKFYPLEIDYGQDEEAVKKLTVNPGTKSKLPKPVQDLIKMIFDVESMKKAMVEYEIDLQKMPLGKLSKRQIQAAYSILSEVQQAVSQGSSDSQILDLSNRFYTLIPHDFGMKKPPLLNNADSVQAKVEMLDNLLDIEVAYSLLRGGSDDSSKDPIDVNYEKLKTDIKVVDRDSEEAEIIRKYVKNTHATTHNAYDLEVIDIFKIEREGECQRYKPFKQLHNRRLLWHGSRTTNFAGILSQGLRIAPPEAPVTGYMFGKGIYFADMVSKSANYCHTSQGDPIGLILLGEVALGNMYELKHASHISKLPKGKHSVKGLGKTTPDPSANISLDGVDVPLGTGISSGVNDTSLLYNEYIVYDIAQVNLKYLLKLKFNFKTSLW
# Condition Summary: dose 10.0 nM
# Description: Inhibition of PARP1 (unknown origin) at 10 nM relative to control

Worked examples, 3 compounds total:
compound_string=NC(=O)c1cccc2cc(C(=O)N3CCN(c4cc(-n5c(C(F)F)nc6ccccc65)nc(N5CCOCC5)n4)CC3)oc12 result_value=38%
compound_string=NC(=O)c1cccc2cc(C(=O)N3CCN(c4nc(-c5cnc(N)cc5C(F)(F)F)nc(N5CCOCC5)n4)CC3)oc12 result_value=60%
compound_string=NC(=O)c1cccc2cc(C(=O)N3CCN(c4nc(-c5ccc(N)c(F)c5)nc(N5CCOCC5)n4)CC3)oc12 result_value=51%

Report inhibition for NC(=O)c1cccc2cc(C(=O)N3CCN(c4nc(-c5ccc6[nH]ccc6c5)nc(N5CCOCC5)n4)CC3)oc12 tested on Poly [ADP-ribose] polymerase 1 (Homo sapiens, UniProt P09874).
62%

State its inhibition on Poly [ADP-ribose] polymerase 1 (Homo sapiens, UniProt P09874): NC(=O)c1cccc2cc(C(=O)N3CCN(c4nc(-c5cnc(N)nc5)nc(N5CCOCC5)n4)CC3)oc12
70%

Record NC(=O)c1cccc2cc(C(=O)N3CCN(c4cc(-c5cnc(N)nc5)nc(N5CCOCC5)n4)CC3)oc12 : what is its inhibition with Poly [ADP-ribose] polymerase 1 (Homo sapiens, UniProt P09874)?
85%

====

# Assay Text: Elimination rate constant in dog liver microsomes measured after 1 hr
# Type: ADME, Canis lupus familiaris, Microsome
Quantity Measured: k el at 1 h (s⁻¹)
API: value field is a number in s⁻¹; no unit string.

Item under review: NC(=O)c1cccc2cc(C(=O)N3CCN(c4nc(-c5cnc(NC(=O)CN6CCOCC6)cc5C(F)(F)F)nc(N5CCOCC5)n4)CC3)oc12 . Reported k el at 1 h?
0.000245

====

# Assay Text: Elimination rate constant in rat liver microsomes measured after 1 hr
# Format: ADME, Microsome
Quantity Measured: k el at 1 h (s⁻¹)
Numeric only. Scale: s⁻¹

Need k el at 1 h of NC(=O)c1cccc2cc(C(=O)N3CCN(c4nc(-c5cnc(NC(=O)CN6CCOCC6)cc5C(F)(F)F)nc(N5CCOCC5)n4)CC3)oc12 , thanks.
0.000275

====

# Assay Text: Elimination half life in rat liver microsomes measured after 1 hr
# Format: ADME, Microsome
# Condition Summary: read-out: beta t1/2
Quantity Measured: half-life (min)
# output: bare number, implied unit min

May I ask what half-life has been recorded for NC(=O)c1cccc2cc(C(=O)N3CCN(c4nc(-c5cnc(NC(=O)CN6CCOCC6)cc5C(F)(F)F)nc(N5CCOCC5)n4)CC3)oc12 ?
42.2
